Target: NUAK family SNF1-like kinase 1 (Homo sapiens) (UniProt O60285)
Sequence (whole entry): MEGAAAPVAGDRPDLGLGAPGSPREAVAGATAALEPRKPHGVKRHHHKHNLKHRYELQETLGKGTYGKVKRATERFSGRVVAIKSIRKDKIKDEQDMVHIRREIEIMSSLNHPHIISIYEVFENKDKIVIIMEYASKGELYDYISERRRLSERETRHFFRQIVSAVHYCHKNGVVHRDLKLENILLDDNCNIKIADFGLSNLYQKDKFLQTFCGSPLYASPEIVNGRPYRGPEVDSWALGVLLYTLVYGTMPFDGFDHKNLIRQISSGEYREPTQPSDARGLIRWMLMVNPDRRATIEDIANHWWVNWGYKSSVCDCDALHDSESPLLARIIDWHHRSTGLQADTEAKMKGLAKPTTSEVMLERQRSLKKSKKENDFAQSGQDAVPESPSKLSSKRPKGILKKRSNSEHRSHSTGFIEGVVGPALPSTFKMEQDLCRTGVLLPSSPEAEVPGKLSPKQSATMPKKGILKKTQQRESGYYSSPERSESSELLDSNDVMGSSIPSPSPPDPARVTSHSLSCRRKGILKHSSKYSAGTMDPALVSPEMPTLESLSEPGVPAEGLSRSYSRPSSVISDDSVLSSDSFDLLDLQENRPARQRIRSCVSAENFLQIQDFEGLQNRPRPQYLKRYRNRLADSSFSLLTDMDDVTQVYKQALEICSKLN
Assay: Inhibition of NUAK1 (unknown origin) at 10 uM using CHKtide as substrate in presence of ATP measured after 60 mins by ADP-Glo assay
Quick rule: inhibition of at least 9% means Satisfied, below that means Not satisfied.

CCC(=O)Nc1cccc(Oc2nc(Nc3ccc(N4CCCC4)cc3OC)ncc2Cl)c1    Satisfied
CCC(=O)Nc1cccc(Oc2nc(Nc3ccc(N(CC)CC)cc3)ncc2Cl)c1    Satisfied
CCC(=O)Nc1cccc(Oc2nc(Nc3ccc(N4CCC(OC)CC4)cc3OC)ncc2Cl)c1    Not satisfied

Turning now to a further record.
Quick check, inhibition >= 9%? `CCC(=O)Nc1cccc(Oc2nc(Nc3ccc(N4CCOCC4)cc3)ncc2Cl)c1`
Satisfied

====

The entries below are paired with their reported inhibition at 10 µM.
test system: U2OS; assay: Antiproliferative activity against human U2OS cells assessed as reduction in cell viability at 10 uM measured after 1 to 5 days by MTT assay; format: functional; details: time 1-5 day
Respond with the bare value in %.

Some compounds with known inhibition at 10 µM results, for comparison:
CCC(=O)Nc1cccc(Oc2nc(Nc3ccc(N4CCOCC4)cc3OC)ncc2Cl)c1    9.7
CCC(=O)Nc1cccc(Oc2nc(Nc3ccc(N4CCN(C)CC4)cc3Cl)ncc2Cl)c1    34.8
CCC(=O)Nc1cccc(Oc2nc(Nc3ccc(N4CCN(C)CC4)cc3OC)ncc2Cl)c1    47.3
CCC(=O)Nc1cccc(Oc2nc(Nc3ccc(N4CCC(C)CC4)cc3)ncc2Cl)c1    44.2
CCC(=O)Nc1cccc(Oc2nc(Nc3ccc(N4CCCC4)cc3OC)ncc2Cl)c1    18.5

Shift focus to the following entry.
Name the recorded inhibition at 10 µM for `CCC(=O)Nc1cccc(Oc2nc(Nc3ccc(N4CCC(OC)CC4)cc3)ncc2Cl)c1` .
48.7

====

biological target: NUAK family SNF1-like kinase 2 (Homo sapiens); experiment: Inhibition of NUAK2 (unknown origin) at 10 uM using CHKtide as substrate in presence of ATP measured after 60 mins by ADP-Glo assay
Activity calls are given as the source filed them. No cut-off for these calls is given here.
assayEndpoint: inhibition

CCC(=O)Nc1cccc(Oc2nc(Nc3ccc(N4CCC(C)CC4)cc3OC)ncc2Cl)c1    inactive
CCC(=O)Nc1cccc(Oc2nc(Nc3ccc(N4CCOCC4)cc3)ncc2Cl)c1    43.5%
CCC(=O)Nc1cccc(Oc2nc(Nc3ccc(N4CCCCC4)cc3)ncc2Cl)c1    72.3%
CCC(=O)Nc1cccc(Oc2nc(Nc3ccc(N(C)C)cc3OC)ncc2Cl)c1    15%
CCC(=O)Nc1cccc(Oc2nc(Nc3ccc(N4CCCCC4)cc3OC)ncc2Cl)c1    inactive
CCC(=O)Nc1cccc(Oc2nc(Nc3ccc(N4CCC(C)CC4)cc3)ncc2Cl)c1    24.8%
CCC(=O)Nc1cccc(Oc2nc(Nc3ccc(N4CCCC4)cc3OC)ncc2Cl)c1    inactive
CCC(=O)Nc1cccc(Oc2nc(Nc3ccc(N(CC)CC)cc3OC)ncc2Cl)c1    inactive
CCC(=O)Nc1cccc(Oc2nc(Nc3ccc(N4CCN(C)CC4)cc3)ncc2Cl)c1    82.5%

Let's switch to this compound now.
Fill in the recorded inhibition for this compound, with NUAK family SNF1-like kinase 2 (Homo sapiens) as test system: `CCC(=O)Nc1cccc(Oc2ccnc(Nc3ccc(N4CCN(C)CC4)cc3)n2)c1`
48.8%

====

Molecular target: UniProt O60285
Sequence (whole entry): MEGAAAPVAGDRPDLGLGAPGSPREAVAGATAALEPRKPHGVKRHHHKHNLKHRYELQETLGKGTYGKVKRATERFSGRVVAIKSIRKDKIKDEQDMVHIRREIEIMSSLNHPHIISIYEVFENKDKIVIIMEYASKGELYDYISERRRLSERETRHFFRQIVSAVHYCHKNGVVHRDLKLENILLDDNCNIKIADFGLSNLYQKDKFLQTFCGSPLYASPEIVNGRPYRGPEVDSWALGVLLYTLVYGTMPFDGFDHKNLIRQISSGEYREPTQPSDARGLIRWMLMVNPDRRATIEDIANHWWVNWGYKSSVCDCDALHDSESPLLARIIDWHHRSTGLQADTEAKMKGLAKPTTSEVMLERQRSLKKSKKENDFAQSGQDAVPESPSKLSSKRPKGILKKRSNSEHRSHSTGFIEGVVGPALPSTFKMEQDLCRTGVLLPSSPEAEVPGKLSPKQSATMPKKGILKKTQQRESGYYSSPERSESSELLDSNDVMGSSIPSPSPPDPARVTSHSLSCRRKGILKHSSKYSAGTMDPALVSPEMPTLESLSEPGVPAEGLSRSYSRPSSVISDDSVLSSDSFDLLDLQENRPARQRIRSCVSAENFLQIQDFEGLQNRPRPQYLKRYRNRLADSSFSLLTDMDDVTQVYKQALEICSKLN
Test: Inhibition of NUAK1 (unknown origin) at 10 uM using CHKtide as substrate in presence of ATP measured after 60 mins by ADP-Glo assay
// Not satisfied strictly below 90% in inhibition; Satisfied otherwise

CCC(=O)Nc1cccc(Oc2ccnc(Nc3ccc(N4CCN(C)CC4)cc3)n2)c1    Not satisfied
CCC(=O)Nc1cccc(Oc2nc(Nc3ccc(N(C)C)cc3OC)ncc2Cl)c1    Not satisfied
CCC(=O)Nc1cccc(Oc2nc(Nc3ccc(N4CCC(C)CC4)cc3)ncc2Cl)c1    Not satisfied

State whether the measured inhibition reaches 90%, counting equality as reaching it, for `CCC(=O)Nc1cccc(Oc2nc(Nc3ccc(N4CCC(OC)CC4)cc3)ncc2Cl)c1`
Not satisfied

Same read-out for `CCC(=O)Nc1cccc(Oc2nc(Nc3ccc(N4CCN(C)CC4)cc3)ncc2Cl)c1` ?
Satisfied

Now the same for `CCC(=O)Nc1cccc(Oc2nc(Nc3ccc(N4CCCCC4)cc3OC)ncc2Cl)c1`
Not satisfied

====

target: NUAK family SNF1-like kinase 1 (Homo sapiens); assay: Inhibition of NUAK1 (unknown origin) at 10 uM using CHKtide as substrate in presence of ATP measured after 60 mins by ADP-Glo assay
The source made the active and inactive calls. The calls are words filed in the database; no cut-off is given here.
assayEndpoint: inhibition

Cc1nc(Nc2cnn(C3CCNCC3)c2)nc2c1N(C)C(=O)c1cc3ccccc3cc1N2C    78.3%
CCC(=O)Nc1cccc(Oc2nc(Nc3ccc(N4CCOCC4)cc3OC)ncc2Cl)c1    65.6%
CCCN(CCC)c1ccc(Nc2ncc(Cl)c(Oc3cccc(NC(=O)CC)c3)n2)c(OC)c1    inactive
CCC(=O)Nc1cccc(Oc2nc(Nc3ccc(N4CCCCC4)cc3)ncc2Cl)c1    86%
CCC(=O)Nc1cccc(Oc2nc(Nc3ccc(N(CC)CC)cc3OC)ncc2Cl)c1    10.8%

Please report the recorded inhibition for `CCC(=O)Nc1cccc(Oc2nc(Nc3ccc(N(C)C)cc3)ncc2Cl)c1` .
72.6%

What do you have for `CCC(=O)Nc1cccc(Oc2nc(Nc3ccc(N4CCN(C)CC4)cc3Cl)ncc2Cl)c1` ?
71.5%

Would you mind doing `CCC(=O)Nc1cccc(Oc2nc(Nc3ccc(N4CCN(C)CC4)cc3OC)ncc2Cl)c1` as well?
85.8%

Next record, please: `CCC(=O)Nc1cccc(Oc2nc(Nc3ccc(N4CCCC4)cc3)ncc2Cl)c1`
inactive

Another compound to check: `CCCN(CCC)c1ccc(Nc2ncc(Cl)c(Oc3cccc(NC(=O)CC)c3)n2)cc1`
9.3%

====

molecular target: NUAK family SNF1-like kinase 2 (Homo sapiens); experiment: Inhibition of NUAK2 (unknown origin) at 10 uM using CHKtide as substrate in presence of ATP measured after 60 mins by ADP-Glo assay
Activity calls are given as the source filed them. The rule behind the calls is not given here.
assayEndpoint: inhibition

Some entries whose results are on file:
CCC(=O)Nc1cccc(Oc2nc(Nc3ccc(N4CCC(OC)CC4)cc3OC)ncc2Cl)c1    inactive
CCC(=O)Nc1cccc(Oc2nc(Nc3ccc(N4CCN(C)CC4)cc3Cl)ncc2Cl)c1    69.1%
Cc1nc(Nc2cnn(C3CCNCC3)c2)nc2c1N(C)C(=O)c1cc3ccccc3cc1N2C    15.6%
CCC(=O)Nc1cccc(Oc2nc(Nc3ccc(N4CCC(OC)CC4)cc3)ncc2Cl)c1    53.4%
CCC(=O)Nc1cccc(Oc2nc(Nc3ccc(N4CCCC4)cc3)ncc2Cl)c1    inactive

Request: inhibition, test system NUAK family SNF1-like kinase 2 (Homo sapiens), entry `CCCN(CCC)c1ccc(Nc2ncc(Cl)c(Oc3cccc(NC(=O)CC)c3)n2)c(OC)c1`
inactive

Same thing, different molecule: `CCC(=O)Nc1cccc(Oc2nc(Nc3ccc(N4CCOCC4)cc3OC)ncc2Cl)c1`
8.45%

Field entry: `CCC(=O)Nc1cccc(Oc2nc(Nc3ccc(N(CC)CC)cc3)ncc2Cl)c1`
21.2%

Let us now turn to `CCC(=O)Nc1cccc(Oc2nc(Nc3ccc(N(C)C)cc3)ncc2Cl)c1`
31.7%

Query `CCCN(CCC)c1ccc(Nc2ncc(Cl)c(Oc3cccc(NC(=O)CC)c3)n2)cc1` next
inactive

Then `CCC(=O)Nc1cccc(Oc2nc(Nc3ccc(N4CCN(C)CC4)cc3OC)ncc2Cl)c1` ?
84.8%

These measurements were taken from ChEMBL document CHEMBL4813921.
